# half-life per record follows
# protocolText: Half life in Sprague-Dawley rat at 3 mg/kg, iv by LC-MS/MS analysis
# Type: ADME, organism-based
# assayConditions: in vivo
Just the number please, in h, no unit attached.

>>> experimentalresult("CC(=O)c1c(C)c2cnc(Nc3ccc(N4CCNCC4)cc3)nc2n2cc(C(C)(C)C)nc12")
5.57

The record that follows has no half-life shown yet.
Input line: Need half-life, item "CC(=O)c1c(C)c2cnc(Nc3ccc(N4CCNCC4)cc3)nc2n2cc(C(C)C)nc12"
Output line: 3.25

* * *

# testedSystem: CDK4/Cyclin D3 (Homo sapiens)
# Sequence (P11802 whole entry, the tested form may be a part): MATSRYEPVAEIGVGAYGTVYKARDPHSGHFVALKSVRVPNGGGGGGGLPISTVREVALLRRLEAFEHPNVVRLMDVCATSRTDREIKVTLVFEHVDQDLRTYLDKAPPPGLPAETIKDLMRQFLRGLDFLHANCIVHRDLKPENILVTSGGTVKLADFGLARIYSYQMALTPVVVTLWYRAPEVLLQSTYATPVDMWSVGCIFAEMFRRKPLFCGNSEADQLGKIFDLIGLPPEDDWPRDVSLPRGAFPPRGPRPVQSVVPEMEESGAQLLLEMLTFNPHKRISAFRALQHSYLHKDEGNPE
# Sequence (P30281 whole entry, further chain, the tested form may be a part): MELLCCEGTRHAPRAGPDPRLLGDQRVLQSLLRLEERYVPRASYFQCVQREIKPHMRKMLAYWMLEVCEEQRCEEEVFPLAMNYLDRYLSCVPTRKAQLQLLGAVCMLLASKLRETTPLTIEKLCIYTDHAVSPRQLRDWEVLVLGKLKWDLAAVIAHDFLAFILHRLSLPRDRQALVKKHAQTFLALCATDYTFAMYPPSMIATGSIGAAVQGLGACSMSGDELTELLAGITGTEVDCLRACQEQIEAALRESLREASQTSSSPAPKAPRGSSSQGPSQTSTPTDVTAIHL
# protocolText: Inhibition of recombinant human full-length N-terminal GST-fused CDK4 (1 to 303 residues)/GST-tagged CyclinD3 (1 to 292 residues) expressed in baculovirus expression system using ULight-elF4E-binding protein 1 peptide as substrate measured after 30 mins by LANCE assay
measuredAttribute: IC50

>>> experimentalresult("Cc1cn2c(n1)c(C#N)c(C)c1cnc(Nc3ccc(Br)cc3)nc12")
"> 3330 nM"
>>> experimentalresult("CC(=O)c1c(C)c2cnc(Nc3ccc(N4CCC(N(C)C)C4)cn3)nc2n2cc(C(C)C)nc12 (stereo unspecified)")
"4.5 nM"
>>> experimentalresult("CC(=O)c1c(C)c2cnc(Nc3ccc(N4CCNCC4)cc3)nc2n2cc(-c3ccccc3)nc12")
"13.5 nM"

Input line: // query IC50 value for entry "CC(=O)c1c(C)c2cnc(Nc3ccc(N4CCNCC4)cc3)nc2n2cc(C(=O)N3CCCC3)nc12"
Output line: 59 nM

Input line: Name the reported IC50 value associated with the molecule "CC(=O)c1c(C)c2cnc(Nc3ccc4c(n3)CCN(CCN(C)C)C4)nc2n2cc(C(C)C)nc12"
Output line: 4.2 nM

Input line: Which measured IC50 value corresponds to "Cc1c(C#N)c2nc(C(C)C)cn2c2nc(Nc3ccc(N4CCNCC4)cc3)ncc12" ?
Output line: 10.3 nM

Input line: // IC50 lookup, key: "CC(=O)c1c(C)c2cnc(Nc3ccc(C(=O)N4CCNCC4)cn3)nc2n2cc(C(C)C)nc12"
Output line: 5.3 nM

Input line: Bench note: what IC50 did "CC(=O)c1c(C)c2cnc(Nc3ccc(N4CCNCC4)cc3)nc2n2cc(C(C)C)nc12" show?
Output line: 0.8 nM

Input line: Entry under review: "CC(=O)c1c(C)c2cnc(Nc3ccc(N4CCNCC4)cc3)nc2n2cc(C)nc12" . Reported IC50?
Output line: 3.6 nM

Input line: Find the recorded IC50 belonging to "Cc1cn2c(n1)c(C#N)c(C)c1cnc(Nc3ccc(Cl)cc3)nc12" and report it.
Output line: 271 nM

Input line: Give the measured IC50 of "Cc1cn2c(n1)c(C#N)c(C)c1cnc(Nc3ccccc3)nc12" .
Output line: 98.9 nM

Input line: What IC50 value was documented for this molecule, "CC(=O)c1c(C)c2cnc(Nc3ccc(N4CCNCC4)cc3)nc2n2cc(C3CCCC3)nc12" ?
Output line: 4.7 nM

Input line: Need IC50, item "Cc1cn2c(n1)c(C#N)c(C)c1cnc(Nc3ccc(N4CCNCC4)cc3)nc12"
Output line: 26.5 nM

Input line: Tell me the measured IC50 of "CNCCN1CCc2nc(Nc3ncc4c(C)c(C(C)=O)c5nc(C(C)C)cn5c4n3)ccc2C1" , please.
Output line: 2.7 nM

Input line: Fill blank: measured IC50 of the molecule "CC(=O)c1c(C)c2cnc(Nc3ccc(N4CC5(CCOCC5)C4)cn3)nc2n2cc(C(C)C)nc12" is ____.
Output line: 9.9 nM

Input line: Reported IC50, molecule "CC(=O)c1c(C)c2cnc(Nc3ccc(N4CCNCC4)cc3)nc2n2cc(C(C)(C)C)nc12" : ____
Output line: 2.7 nM
